- Test system: Escherichia coli TOP10
- testDescription: shrunken log2 fold change of peptide-encoding DNA abundance (4.5 h post-induction vs induction); higher = less antimicrobial activity (less host growth inhibition)
- cond: time post-induction: 4.5 h; library: site-saturation at positions 5, 18, 19, 20
quantityKind: shrunken log2 fold change
Form rule: numeric answer, no unit written next to it.

Task: Item under review: RRIRLRPPRLPRPRPRPLWYPRP . Reported shrunken log2 fold change?
Result: -0.191

Task: What would you report for RRIRSRPPRLPRPRPRPFCQPRP ?
Result: -0.0847

Task: What would you report for RRIRMRPPRLPRPRPRPPCKPRP ?
Result: -0.0348

Task: What would you report for RRIRRRPPRLPRPRPRPLRGPRP ?
Result: 0.732

Task: What would you report for RRIRYRPPRLPRPRPRPAAQPRP ?
Result: 0.466

Task: What would you report for RRIRHRPPRLPRPRPRPMLQPRP ?
Result: -0.0377

Task: What would you report for RRIRHRPPRLPRPRPRPYWVPRP ?
Result: -0.26

Task: What would you report for RRIRHRPPRLPRPRPRPWNKPRP ?
Result: -0.111

Task: What would you report for RRIRPRPPRLPRPRPRPGHIPRP ?
Result: -0.196

Task: What would you report for RRIRQRPPRLPRPRPRPQCPPRP ?
Result: -0.229

Task: What would you report for RRIRKRPPRLPRPRPRPTRAPRP ?
Result: 1.2

Task: What would you report for RRIRWRPPRLPRPRPRPSSHPRP ?
Result: -0.248

Task: What would you report for RRIRIRPPRLPRPRPRPQKLPRP ?
Result: -0.277

Task: What would you report for RRIRNRPPRLPRPRPRPIRNPRP ?
Result: -0.422

Task: What would you report for RRIRKRPPRLPRPRPRPHNHPRP ?
Result: -0.533

Task: What would you report for RRIRKRPPRLPRPRPRPLGPPRP ?
Result: 0.749

Task: What would you report for RRIRNRPPRLPRPRPRPIGKPRP ?
Result: -0.0902

Task: What would you report for RRIRYRPPRLPRPRPRPTIEPRP ?
Result: -0.391

Task: What would you report for RRIRERPPRLPRPRPRPFTEPRP ?
Result: -0.184

Task: What would you report for RRIRQRPPRLPRPRPRPSRVPRP ?
Result: -0.00679

Task: What would you report for RRIRFRPPRLPRPRPRPMSFPRP ?
Result: -0.193

----------
- Tested on: Escherichia coli TOP10;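 further: peptides expressed intracellularly from a pBAD plasmid library in pooled LB shake-flask culture, induced with 0.3% L-arabinose, DNA abundance read by NGS, three biological replicates, DESeq2 with apeglm shrinkage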
- testDescription: shrunken log2 fold change of peptide-encoding DNA abundance (4.5 h post-induction vs induction); higher = less antimicrobial activity (less host growth inhibition)
- cond: time post-induction: 4.5 h; library: site-saturation at positions 5, 18, 19, 20
quantityKind: shrunken log2 fold change

itemSequence: RRIRYRPPRLPRPRPRPHHRPRP
shrunken log2 fold change: -0.306
--
itemSequence: RRIRERPPRLPRPRPRPGCVPRP
shrunken log2 fold change: 0.118
--
itemSequence: RRIRCRPPRLPRPRPRPYGGPRP
shrunken log2 fold change: -0.136
--
itemSequence: RRIRRRPPRLPRPRPRPHWFPRP
shrunken log2 fold change: -0.198
--
itemSequence: RRIRGRPPRLPRPRPRPLQDPRP
shrunken log2 fold change: 0.98
--
itemSequence: RRIRVRPPRLPRPRPRPPMVPRP
shrunken log2 fold change: 0.0314
--
itemSequence: RRIRERPPRLPRPRPRPWQHPRP
shrunken log2 fold change: -0.00568
--
itemSequence: RRIRTRPPRLPRPRPRPRQWPRP
shrunken log2 fold change: -0.054
--
itemSequence: RRIRDRPPRLPRPRPRPQEEPRP
shrunken log2 fold change: -0.0321
--
itemSequence: RRIRWRPPRLPRPRPRPIELPRP
shrunken log2 fold change: -0.0796

Task: Item under review: RRIRVRPPRLPRPRPRPNRIPRP . Reported shrunken log2 fold change?
Result: -0.0663

Task: What would you report for RRIRFRPPRLPRPRPRPWGNPRP ?
Result: 0.117

Task: What would you report for RRIRMRPPRLPRPRPRPCDGPRP ?
Result: 0.0158

Task: What would you report for RRIRMRPPRLPRPRPRPCMLPRP ?
Result: 0.303

Task: What would you report for RRIRERPPRLPRPRPRPRHKPRP ?
Result: -0.0631
